Measured apparent KD of K4 kissing-loop reporter, listed per entry for reference.
Tested on: K4 kissing-loop RNA reporter;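 further: bound reporter read as fluorescence of individual clusters on recovered sequencing chips by microscopy, with normalized cluster intensities fitted with a binding model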
ASSAY TEXT: apparent KD of K4 kissing-loop reporter; higher = weaker reporter binding
CONDITION PARAMETERS: Eterna round: R107; input ligand: theophylline 20 uM
API: value field is a number in nM; no unit string.

Consider the reported apparent KD of K4 kissing-loop reporter for these sequences:
- AAGUGUGUGGCGGCCGCCACUAGAAUCCAGUGAUGUUGGAGAUAUCAUGUAAAUGAUAUCCAACAUAGGACCGGGCCAUAUAGAA [Same State - Tryptophan B (Freestyle 10)]: 131
- UGUACCGAGUCAGGAUAUGGCGUCGAAAGACGAAUGCUAGUGAUGUUAGGGAUCUGCGAAAGCAGUCUAGAAGGGACUUGGUACU [FmnBS 26 G36+U68]: 483
- CAAACGGGUUGGCUUGGAGACUGCAGACGCAAGGAUAUCGCGAAGACGAGAAGGUGCGGGCCUGGUAGUGAUGUUACAGUUUGGU [theeternabot_sameState_KL_FMN_A_21]: 367

Turning now to a further record.
apparent KD of K4 kissing-loop reporter reported for this sequence UGAUACCAGACUGAUACCAGCCAGUGAUGUUGGCUAAGCCGAAGAGGUGUCAAAGACACCGGCCCUUGGCAGCAGUCUGGUAUCU [#06 K4 Theophylline B Exclusion] : 117
